target: gastrin (Rattus norvegicus, UniProt P30553); construct: The stomach was excised and flushed with ca. 1 ml of unbuffered physiological saline solution; from tissue; host or cells: isolated whole stomach of immature rats (33-50 g, ca. 21 days old); assay: gastrin antagonist activity in an immature rat stomach assay; conditions: isolated immature rat stomach, cumulative pentagastrin dose-response curves, acid secretion; read-out: Gastrin pKB (converted)
Sequence (P30553 whole entry): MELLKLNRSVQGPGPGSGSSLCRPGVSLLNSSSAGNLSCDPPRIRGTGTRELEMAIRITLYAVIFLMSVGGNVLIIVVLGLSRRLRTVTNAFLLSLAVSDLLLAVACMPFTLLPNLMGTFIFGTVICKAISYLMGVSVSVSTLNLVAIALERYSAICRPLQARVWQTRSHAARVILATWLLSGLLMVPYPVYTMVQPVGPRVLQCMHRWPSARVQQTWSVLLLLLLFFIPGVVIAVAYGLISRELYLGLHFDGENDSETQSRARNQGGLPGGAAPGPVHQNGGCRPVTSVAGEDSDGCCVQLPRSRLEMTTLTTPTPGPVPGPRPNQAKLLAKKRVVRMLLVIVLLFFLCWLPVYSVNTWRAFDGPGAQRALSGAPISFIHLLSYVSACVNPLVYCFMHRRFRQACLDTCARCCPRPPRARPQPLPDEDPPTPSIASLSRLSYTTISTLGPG
measured parameter: Kb (nM)

O=C(O)c1cc(NC(=O)[C@@H](Cc2ccc(O)cc2)NC(=O)C2C3c4ccccc4C(c4ccccc43)C2C(=O)NCC23CC4CC(CC(C4)C2)C3)cc(C(=O)O)c1 (single isomer, unassigned) [Example 27]    7.94

1. O=C(O)c1cc(NC(=O)[C@@H](CCc2ccccc2)NC(=O)C2C3c4ccccc4C(c4ccccc43)C2C(=O)NCC23CC4CC(CC(C4)C2)C3)cc(C(=O)O)c1 (stereo partly drawn)
2. O=C(O)c1cc(CNC(=O)[C@H](Cc2ccccc2)NC(=O)C2C3c4ccccc4C(c4ccccc43)C2C(=O)NCC23CC4CC(CC(C4)C2)C3)cc(C(=O)O)c1 (single isomer, unassigned) [Example 61]
Out of 1 and 2 , name the one with the higher Kb. I would appreciate it if you answered with the label of your choice.
1
(1: 63.1 nM, 2: 39.8 nM)

====

molecular target: CCKA (Cavia porcellus, UniProt Q63931); construct: The pancreatata were removed from male guinea-pigs (200-300g; Dunkin Hartley); from tissue; host or cells: pancreas membranes of male Dunkin Hartley guinea-pigs; assay: CCKA binding assay in guinea-pig pancreas membranes; conditions: [125I]-CCK8(S) 200pM, containing 0.375 µM PD134,308, read-out: CCKA pKi (converted)
Sequence (Q63931 whole entry): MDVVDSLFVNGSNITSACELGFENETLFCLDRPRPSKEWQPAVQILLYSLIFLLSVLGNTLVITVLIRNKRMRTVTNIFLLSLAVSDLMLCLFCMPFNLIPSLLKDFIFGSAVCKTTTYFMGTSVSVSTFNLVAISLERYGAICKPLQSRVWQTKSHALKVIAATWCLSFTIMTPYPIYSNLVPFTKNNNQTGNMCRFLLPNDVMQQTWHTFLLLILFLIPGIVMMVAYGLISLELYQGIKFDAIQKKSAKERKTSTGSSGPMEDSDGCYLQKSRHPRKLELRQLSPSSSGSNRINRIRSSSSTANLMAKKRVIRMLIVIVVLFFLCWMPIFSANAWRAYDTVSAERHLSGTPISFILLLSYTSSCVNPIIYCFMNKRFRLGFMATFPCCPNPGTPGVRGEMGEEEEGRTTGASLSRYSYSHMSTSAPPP
measured parameter: Ki (µM)

Record excerpt, results attached:
O=C(O)c1cc(NC(=O)[C@H](Cc2ccccc2F)NC(=O)C2C3c4ccccc4C(c4ccccc43)C2C(=O)NCC23CC4CC(CC(C4)C2)C3)cc(C(=O)O)c1 (single isomer, unassigned) [Example 16]    1
O=C(O)c1cc(NC(=O)[C@@H](NC(=O)C2C3c4ccccc4C(c4ccccc43)C2C(=O)NCC23CC4CC(CC(C4)C2)C3)c2ccccc2)cc(C(=O)O)c1 (stereo partly drawn)    2.51
CC(C)(NC(=O)C1C2c3ccccc3C(c3ccccc32)C1C(=O)N[C@@H](Cc1ccccc1)C(=O)Nc1cc(C(=O)O)cc(C(=O)O)c1)C12CC3CC(CC(C3)C1)C2 (stereo partly drawn)    2.51
O=C(O)c1cc(NC(=O)[C@H](Cc2ccccc2)NC(=O)C2C3c4ccccc4C(c4ccccc43)C2C(=O)NCC2CCCCC2)cc(C(=O)O)c1 (single isomer, unassigned) [Example 30]    3.98

A. O=C(O)c1cc(NC(=O)[C@H](Cc2ccccc2)NC(=O)C2C3c4ccccc4C(c4ccccc43)C2C(=O)NCc2ccc3ccccc3c2)cc(C(=O)O)c1 (single isomer, unassigned)
B. O=C(O)c1cccc(NC(=O)[C@H](Cc2ccccc2)NC(=O)C2C3c4ccccc4C(c4ccccc43)C2C(=O)NCC23CC4CC(CC(C4)C2)C3)c1 (single isomer, unassigned)
Field: lower Ki | Options: A / B API: response body contains the label of the selected item.
B
(B: 1 µM, A: 1.58 µM)

====

molecular target: gastrin (Rattus norvegicus); construct: The stomach was excised and flushed with ca. 1 ml of unbuffered physiological saline solution; from tissue; host or cells: isolated whole stomach of immature rats (33-50 g, ca. 21 days old); assay: gastrin antagonist activity in an immature rat stomach assay; settings: isolated immature rat stomach, cumulative pentagastrin dose-response curves, acid secretion; read-out: Gastrin pKB (converted)
measured parameter: Kb (nM)

O=C(O)c1ccc(NC(=O)[C@H](Cc2ccccc2)NC(=O)C2C3c4ccccc4C(c4ccccc43)C2C(=O)NCC23CC4CC(CC(C4)C2)C3)cc1C(=O)O (stereo partly shown) [Example 43]    794

P. O=C(O)c1cc(NC(=O)[C@H](Cc2ccccc2)NC(=O)C2C3c4ccccc4C(c4ccccc43)C2C(=O)NCCc2ccccc2)cc(C(=O)O)c1 (stereo partly shown) [Example 53]
Q. O=C(O)c1cc(NC(=O)[C@@H](Cc2ccccc2)NC(=O)C2C3c4ccccc4C(c4ccccc43)C2C(=O)NCC23CC4CC(CC(C4)C2)C3)cc(C(=O)O)c1 (single isomer, unassigned) [Example 4]
R. O=C(O)c1cc(NC(=O)[C@H](Cc2ccc(O)cc2)NC(=O)C2C3c4ccccc4C(c4ccccc43)C2C(=O)NCC23CC4CC(CC(C4)C2)C3)cc(C(=O)O)c1 (single isomer, unassigned) [Example 24]
S. O=C(O)c1ccc(NC(=O)[C@H](Cc2ccccc2)NC(=O)C2C3c4ccccc4C(c4ccccc43)C2C(=O)NCC23CC4CC(CC(C4)C2)C3)cc1 (single isomer, unassigned) [Example 46]
In this exercise, place the 4 molecules in ascending sequence of their recorded Kb. Dear reader, please state the labels in the requested order.
R, Q, P, S
(R: 1.26 nM, Q: 15.8 nM, P: 79.4 nM, S: 2000 nM)

I. COc1ccc(C[C@H](NC(=O)C2C3c4ccccc4C(c4ccccc43)C2C(=O)NCC23CC4CC(CC(C4)C2)C3)C(=O)Nc2cc(C(=O)O)cc(C(=O)O)c2)cc1 (single isomer, unassigned) [Example 13]
II. O=C(O)c1cc(NC(=O)[C@H](Cc2ccccc2)NC(=O)C2C3c4ccccc4C(c4ccccc43)C2C(=O)NCC23CC4CC(CC(C4)C2)C3)cc(C(=O)O)c1 (single isomer, unassigned) [Example 1]
III. COc1ccc(C[C@H](NC(=O)C2C3c4ccccc4C(c4ccccc43)C2C(=O)NCC23CC4CC(CC(C4)C2)C3)C(=O)Nc2cc(C(=O)O)cc(C(=O)O)c2)cc1 (single isomer, unassigned) [Example 12]
IV. O=C(O)c1cc(NC(=O)[C@@H](Cc2ccccc2)NC(=O)C2C3c4ccccc4C(c4ccccc43)C2C(=O)NCC23CC4CC(CC(C4)C2)C3)cc(C(=O)O)c1 (single isomer, unassigned) [Example 3]
Sort the molecules on Kb; start with the lowest figure. Write the labels in rank order as requested.
II, III, IV, I

1. O=C(O)c1cc(NC(=O)[C@H](CC2CCCCC2)NC(=O)C2C3c4ccccc4C(c4ccccc43)C2C(=O)NCC23CC4CC(CC(C4)C2)C3)cc(C(=O)O)c1 (stereo partly shown) [Example 5]
2. O=C(O)c1cc(NC(=O)[C@H](Cc2ccccc2Cl)NC(=O)C2C3c4ccccc4C(c4ccccc43)C2C(=O)NCC23CC4CC(CC(C4)C2)C3)cc(C(=O)O)c1 (stereo partly shown) [Example 20]
Would you let me know which has the greater Kb value, 1 or 2 ? Your choice should be expressed through its label.
1
(1: 316 nM, 2: 6.31 nM)

A. O=C(O)c1cc(NC(=O)[C@H](Cc2ccccc2)NC(=O)C2C3c4ccccc4C(c4ccccc43)C2C(=O)NCc2ccc(Cl)c(Cl)c2)cc(C(=O)O)c1 (single isomer, unassigned) [Example 34]
B. O=C(O)c1cc(NC(=O)[C@H](Cc2ccccc2)NC(=O)C2C3c4ccccc4C(c4ccccc43)C2C(=O)NCc2ccc3ccccc3c2)cc(C(=O)O)c1 (single isomer, unassigned) [Example 63]
C. O=C(O)c1cccc(NC(=O)[C@H](Cc2ccccc2)NC(=O)C2C3c4ccccc4C(c4ccccc43)C2C(=O)NCC23CC4CC(CC(C4)C2)C3)c1 (single isomer, unassigned) [Example 40]
D. O=C(O)c1cc(NC(=O)[C@@H](Cc2cccs2)NC(=O)C2C3c4ccccc4C(c4ccccc43)C2C(=O)NCC23CC4CC(CC(C4)C2)C3)cc(C(=O)O)c1 (single isomer, unassigned) [Example 21]
E. O=C(O)c1cc(NC(=O)[C@H](Cc2ccccc2F)NC(=O)C2C3c4ccccc4C(c4ccccc43)C2C(=O)NCC23CC4CC(CC(C4)C2)C3)cc(C(=O)O)c1 (single isomer, unassigned) [Example 16]
Order the entries by their reported Kb, beginning at the minimum. Give the labels in the order specified.
E, B, D, A, C

I. O=C(O)c1cc(NC(=O)[C@@H](NC(=O)C2C3c4ccccc4C(c4ccccc43)C2C(=O)NCC23CC4CC(CC(C4)C2)C3)c2ccccc2)cc(C(=O)O)c1 (stereo partly shown) [Example 39]
II. O=C(NCC12CC3CC(CC(C3)C1)C2)C1C2c3ccccc3C(c3ccccc32)C1C(=O)N[C@@H](Cc1ccccc1)C(=O)Nc1ccccc1 (single isomer, unassigned) [Example 23]
Of the two listed items, I and II , which carries the larger Kb figure? Indicate your choice by writing its label.
I

====

target: gastrin (Rattus norvegicus, UniProt P30553); construct: The stomach was excised and flushed with ca. 1 ml of unbuffered physiological saline solution; from tissue; host or cells: isolated whole stomach of immature rats (33-50 g, ca. 21 days old); assay: gastrin antagonist activity in an immature rat stomach assay; settings: isolated immature rat stomach, cumulative pentagastrin dose-response curves, acid secretion; 60 min
measured parameter: Gastrin pKB

O=C(NCC12CC3CC(CC(C3)C1)C2)C1C2c3ccccc3C(c3ccccc32)C1C(=O)N[C@@H](Cc1ccccc1)C(=O)Nc1cc(-c2nnn[nH]2)cc(-c2nnn[nH]2)c1 (stereo partly shown)    6.9
O=C(O)c1cc(NC(=O)[C@H](Cc2ccc3ccccc3c2)NC(=O)C2C3c4ccccc4C(c4ccccc43)C2C(=O)NCC23CC4CC(CC(C4)C2)C3)cc(C(=O)O)c1 (single isomer, unassigned) [Example 15]    5.8
O=C(O)c1cccc(NC(=O)[C@H](Cc2ccccc2)NC(=O)C2C3c4ccccc4C(c4ccccc43)C2C(=O)NCC23CC4CC(CC(C4)C2)C3)c1 (single isomer, unassigned)    5.7
O=C(O)c1cc(NC(=O)[C@H](Cc2ccc3ccccc3c2)NC(=O)C2C3c4ccccc4C(c4ccccc43)C2C(=O)NCC23CC4CC(CC(C4)C2)C3)cc(C(=O)O)c1 (single isomer, unassigned) [Example 14]    6.9
